Source of measurements: PubChem BioAssay AID2283302

target: rat Gamma-HydroxyButyrate Receptor (GHB), Tspan17 (gene 306771); assay: NVS_GPCR_rGHB: NovaScreen (NVS) G Protein-Coupled Receptor Assay for rat Gamma-HydroxyButyrate Receptor (GHB)
Inconclusive results are not listed. Active and inactive are the calls of the source. Rule for the calls: active = hit-call score of the fitted dose curve at least 0.9, where 1 is the maximum; inconclusive = response in the unintended direction; inactive = score below 0.9.
Outcomes: true (1) for active, false (0) for inactive

molecule=CCOP(=O)(OCC)Oc1nc(Cl)c(Cl)cc1Cl assigned_category="false (0)"
molecule="CCOC(=O)CC(SP(=S)(OC)OC)C(=O)OCC (centres undefined)" assigned_category="false (0)"
molecule=Cc1cc(Cl)ccc1OCC(=O)O assigned_category="true (1)"
molecule=N#CSCSC#N assigned_category="true (1)"
